tested on: 855422-203-R-J1-PDC complex spheroid growth; assay: Anticancer human tumor 855422-203-R-J1-PDC patient-derived bladder carcinoma cell line growth inhibition [AhR]; conditions: second compound 10 µM; first compound 1 µM; active compounds read low;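 also: spheroids exposed to agents for seven days before readout; percent of DMSO vehicle control luminescence viability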
Let's look at some compounds and their measured viability, T/C.

>  <compound>
CC1COCCN1c1cc(C2(S(C)(=N)=O)CC2)nc(-c2ccnc3[nH]ccc23)n1 (stereo not drawn) + Cc1cncc(-c2nc(NCCc3c[nH]c4ccccc34)c3ncn(C(C)C)c3n2)c1

>  <experimental.system>
855422-203-R-J1-PDC complex spheroid growth;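 also: spheroids exposed to agents for seven days before readout; percent of DMSO vehicle control luminescence viability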

>  <viability, T/C>
9.69%

$$$$
>  <compound>
CC1COCCN1c1cc(-c2ccnn2C)c2ccnc(-c3ccn[nH]3)c2n1 (stereo not drawn) + CC(CO)NC(=O)c1cc(-c2ccc(Cl)cc2)nn(-c2cnn(C)c2)c1=O

>  <experimental.system>
855422-203-R-J1-PDC complex spheroid growth;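 also: spheroids exposed to agents for seven days before readout; percent of DMSO vehicle control luminescence viability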

>  <viability, T/C>
19.8%

$$$$
>  <compound>
CC1COCCN1c1cc(C2(S(C)(=N)=O)CC2)nc(-c2ccnc3[nH]ccc23)n1 (stereo not drawn) + Cc1ccccc1N=Nc1ccc(NC(=O)c2ccnn2C)c(C)c1

>  <experimental.system>
855422-203-R-J1-PDC complex spheroid growth;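 also: spheroids exposed to agents for seven days before readout; percent of DMSO vehicle control luminescence viability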

>  <viability, T/C>
93.3%

$$$$
